# Tested on: Trichopyton rubrum
# test_description: Minimum inhibitory concentration, poison media procedure
# Format: cell-based, Trichophyton rubrum
# run_conditions: 100 ppm (v/v) in modified Sabouraud agar; one week at 30° C.
measurement_kind: Growth on poison media (fungistatic / fungicidal / growth)

>  <smi>
C=CCc1ccc(O)c(OC)c1

>  <target_or_test_system>
Trichopyton rubrum

>  <result>
[empty]

$$$$
>  <smi>
O=CC=Cc1ccccc1

>  <target_or_test_system>
Trichopyton rubrum

>  <result>
[empty]

$$$$
>  <smi>
CC(C)=CCCC(C)=CC=O

>  <target_or_test_system>
Trichopyton rubrum

>  <result>
[empty]

$$$$

###

# Test system: Trichopyton rubrum
# test_description: Minimum inhibitory concentration, poison media procedure
# Type: cell-based, Trichophyton rubrum
# run_conditions: 500 ppm (v/v) in modified Sabouraud agar; one week at 30° C.
measurement_kind: Growth on poison media (fungistatic / fungicidal / growth)

>  <smi>
Cc1ccc(C(C)C)c(O)c1

>  <result>
fungicidal

$$$$
>  <smi>
O=CC=Cc1ccccc1

>  <result>
fungicidal

$$$$
>  <smi>
Cc1ccc(C(C)C)cc1O

>  <result>
fungicidal

$$$$

###

# Tested on: Microsporum gypseum
# test_description: Minimum inhibitory concentration, poison media procedure
# Assay type: cell-based
# run_conditions: 100 ppm (v/v) in modified Sabouraud agar; one week at 30° C.
measurement_kind: Growth on poison media (fungistatic / fungicidal / growth)

>  <compound>
C=CCc1ccc(O)c(OC)c1 [Eugenol]

>  <result>
[empty]

$$$$
>  <compound>
Cc1ccc(C(C)C)cc1O [Carvacrol]

>  <result>
fungistatic

$$$$
>  <compound>
CC(C)=CCCC(C)=CC=O [Citral]

>  <result>
[empty]

$$$$
>  <compound>
Cc1ccc(C(C)C)c(O)c1 [Thymol]

>  <result>
fungistatic

$$$$
>  <compound>
O=CC=Cc1ccccc1 [Cinnamaldehyde]

>  <result>
[empty]

$$$$
